Value source: ChEMBL document CHEMBL5291721

ASSAY TARGET: Alpha-2A adrenergic receptor (Homo sapiens, UniProt P08913); also: assay procedure not described here
Sequence (P08913 whole entry): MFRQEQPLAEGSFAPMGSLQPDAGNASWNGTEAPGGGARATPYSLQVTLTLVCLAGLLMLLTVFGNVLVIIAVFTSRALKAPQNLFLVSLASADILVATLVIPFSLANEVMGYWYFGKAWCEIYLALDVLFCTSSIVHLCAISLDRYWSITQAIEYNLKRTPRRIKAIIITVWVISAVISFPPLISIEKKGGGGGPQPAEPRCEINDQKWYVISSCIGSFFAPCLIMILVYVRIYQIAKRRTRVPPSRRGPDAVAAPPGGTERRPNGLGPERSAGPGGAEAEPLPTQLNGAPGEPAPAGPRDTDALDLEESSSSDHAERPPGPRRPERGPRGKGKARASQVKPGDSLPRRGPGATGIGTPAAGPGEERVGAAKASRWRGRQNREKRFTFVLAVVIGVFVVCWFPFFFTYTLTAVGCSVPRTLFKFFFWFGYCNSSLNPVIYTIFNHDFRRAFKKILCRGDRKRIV
Format: functional, cell-based
Readings of AC50 for the listed molecules
READOUT TYPE: AC50

- Oc1ncnc2[nH]ncc12: > 10 µM
- CCCCN1CCCCC1C(=O)Nc1c(C)cccc1C (stereo unspecified): > 30 µM
- CCCCOc1cc(C(=O)NCCN(CC)CC)c2ccccc2n1: > 10 µM
- O=C(O)c1cc(-c2ccc(F)cc2F)ccc1O: > 10 µM
- COCC1=C(C(=O)OC(C)OC(=O)OC(C)C)N2C(=O)[C@@H](NC(=O)/C(=N\OC)c3csc(N)n3)[C@H]2SC1 (stereo partly specified): > 30 µM
- CC(=O)OCC(=O)[C@@]12OC3(CCCC3)O[C@@H]1C[C@H]1[C@@H]3CCC4=CC(=O)C=C[C@]4(C)[C@@]3(F)[C@@H](O)C[C@@]12C [AMCINONIDE]: > 10 µM
- O=C(Nc1ccccc1)OCC(CN1CCCCC1)OC(=O)Nc1ccccc1 (stereo unspecified): > 10 µM
- CCc1ccc(CCOc2ccc(CC3SC(=O)NC3=O)cc2)nc1 (stereo unspecified): > 10 µM
- NS(=O)(=O)c1cc(-c2nnn[nH]2)c(NCc2cccs2)cc1Cl [AZOSEMIDE]: > 30 µM
- CC(=O)c1ccc2c(c1)N(CCCN1CCN(CCO)CC1)c1ccccc1S2: 1.2 µM
- C[C@]12CCC(=O)C=C1CC[C@@H]1[C@@H]2CC[C@@]2(C)[C@H]1CC[C@]2(C)O: > 30 µM
- COC(=O)C1=C(C)NC(C)=C(C(=O)OC(C)C)C1c1cccc2nonc12 (stereo unspecified): > 10 µM
- CC[C@]1(O)C[C@@H]2CN(CCc3c([nH]c4ccccc34)[C@@](C(=O)OC)(c3cc4c(cc3OC)N(C)[C@H]3[C@@](O)(C(N)=O)[C@H](O)[C@]5(CC)C=CCN6CC[C@]43[C@@H]65)C2)C1: > 30 µM
- NC(=O)c1ncn([C@@H]2O[C@H](CO)[C@@H](O)[C@H]2O)c1O: > 30 µM
- CC(C(=O)O)c1ccc(C(=O)c2cccs2)cc1 (stereo unspecified): > 10 µM
- C1=Cc2cccc(OCC3CNCCO3)c2C1 (stereo unspecified): > 30 µM
- N[C@@H](CSCC(=O)O)C(=O)O: > 30 µM
- O=C(CCCCC(=O)Nc1c(I)cc(I)c(C(=O)O)c1I)Nc1c(I)cc(I)c(C(=O)O)c1I [IODIPAMIDE]: > 10 µM
- CC(C)Cc1ccc(CC(=O)O)cc1: > 30 µM
- CC(C)C(=O)Nc1ccc([N+](=O)[O-])c(C(F)(F)F)c1 [FLUTAMIDE]: > 10 µM
- C[N+](C)(C)CCOC(N)=O: > 30 µM
- N/N=c1/cc2c(n[nH]1)CCN(C(=O)c1ccccc1)C2: > 30 µM
- Nc1nc(N)c2nc(-c3ccccc3)c(N)nc2n1: > 30 µM
- CCCS(=O)(=O)Nc1ccc(F)c(C(=O)c2c[nH]c3ncc(-c4ccc(Cl)cc4)cc23)c1F: > 30 µM
- O=C(Cn1ccnc1[N+](=O)[O-])NCc1ccccc1: > 30 µM
- CN1C(=O)N(C)C2C1N(C)C(=O)N2C (stereo unspecified): > 30 µM
- CC(=O)N(CC(O)CO)c1c(I)c(C(=O)NCC(O)CO)c(I)c(C(=O)NCC(O)CO)c1I (stereo unspecified) [IOHEXOL]: > 10 µM
- CCCC(=O)N1CCCN(c2nc(N)c3cc(OC)c(OC)cc3n2)CC1: 11 µM
- COC(=O)C1=C(C)NC(C)=C(C(=O)OCC(C)C)C1c1ccccc1[N+](=O)[O-] (stereo unspecified): > 10 µM
- C#C[C@]1(O)CC[C@H]2[C@@H]3CCC4=CCCC[C@@H]4[C@H]3CC[C@@]21C: > 30 µM
- COc1ccc(C(=O)N2CCN(c3ccc4c(c3)CCC(=O)N4)CC2)cc1OC: > 30 µM
- COC(=O)[C@H]1[C@@H](OC(=O)c2ccccc2)C[C@@H]2CC[C@H]1N2C: > 30 µM
- NC(=O)c1cnccn1 [PYRAZINAMIDE]: > 30 µM
- O=C(CCCCCCC(=O)Nc1ccccc1)NO: > 30 µM
- CCC(C(=O)O)c1ccc(CC(C)C)cc1 (stereo unspecified): > 30 µM
- COc1ccc(C(=O)NCc2ccc(OCCN(C)C)cc2)cc1OC [ITOPRIDE]: > 30 µM
